These entries and their values trace back to patent US20020137929A1.

Tested on: TRZAWR (Wheat, Winter, cv Riband)
test-method-notes: Preemergence herbicidal evaluation
Format: in vivo, Triticum aestivum
condition-parameters: rate 0.2500 kg/ha; rated 4-5 weeks after treatment; rating scale 0-9
measured-quantity: Preemergence herbicidal rating TRZAWR

molecule="CCOC(=O)CN1C(=O)C(COC)SC1=Nc1cc(-n2c(=O)cc(C(F)(F)F)n(C)c2=O)c(F)cc1Cl (stereo not drawn) [Compound 156]" reported_value=3.0
molecule="CCOC(=O)CN1C(=O)C(Br)SC1=Nc1cc(-n2c(=O)cc(C(F)(F)F)n(C)c2=O)c(F)cc1Cl (stereo not drawn) [Compound 153]" reported_value=0.0
molecule="Cn1c(C(F)(F)F)cc(=O)n(-c2cc(N=C3SCC(=O)N3Cc3ccc(Cl)c(Cl)c3)c(Cl)cc2F)c1=O [Compound 144]" reported_value=0.0
molecule="Cc1cc(C)cc(CN2C(=O)CSC2=Nc2cc(-n3c(=O)cc(C(F)(F)F)n(C)c3=O)c(F)cc2Cl)c1 [Compound 146]" reported_value=1.0
molecule="Cn1c(C(F)(F)F)cc(=O)n(-c2cc(N=C3SCC(=O)N3Cc3ccc(F)cc3)c(Cl)cc2F)c1=O [Compound 151]" reported_value=9.0
molecule="Cn1c(C(F)(F)F)cc(=O)n(-c2cc(N=C3SCC(=O)N3Cc3cccnc3)c(Cl)cc2F)c1=O [Compound 132]" reported_value=1.0

###

The following compounds are listed with their measured TRZAWR rating values.
System: TRZAWR (Wheat, Winter, cv Riband)
test-method-notes: Preemergence herbicidal evaluation
Type: in vivo, Triticum aestivum
condition-parameters: preemergence, 0.1250 kg/ha, rated 4-5 weeks after treatment, 0-9 scale
measured-quantity: TRZAWR rating

compound="C#CCOC(=O)CC1SC(=Nc2cc(-n3c(=O)cc(C(F)(F)F)n(C)c3=O)c(F)cc2Cl)N(C)C1=O (stereo not shown) [Compound 90]" target_or_system="TRZAWR (Wheat, Winter, cv Riband)" measured_quantity="TRZAWR rating" reported_value=2.0
compound="CCOC(=O)CN1C(=O)C(CC(=O)NOC)SC1=Nc1cc(-n2c(=O)cc(C(F)(F)F)n(C)c2=O)c(F)cc1Cl (stereo not shown) [Compound 83]" target_or_system="TRZAWR (Wheat, Winter, cv Riband)" measured_quantity="TRZAWR rating" reported_value=0.0
compound="C=CCN1C(=O)C(CC(=O)NC)SC1=Nc1cc(-n2c(=O)cc(C(F)(F)F)n(C)c2=O)c(F)cc1Cl (stereo not shown) [Compound 84]" target_or_system="TRZAWR (Wheat, Winter, cv Riband)" measured_quantity="TRZAWR rating" reported_value=4.0
compound="CN1C(=O)C(CC(=O)OCCF)SC1=Nc1cc(-n2c(=O)cc(C(F)(F)F)n(C)c2=O)c(F)cc1Cl (stereo not shown) [Compound 93]" target_or_system="TRZAWR (Wheat, Winter, cv Riband)" measured_quantity="TRZAWR rating" reported_value=2.0

###

GALAP herbicidal rating by entry:
System: GALAP (Galium)
test-method-notes: Postemergence herbicidal evaluation
Type: in vivo, Galium aparine
condition-parameters: postemergence, rate 0.0315 kg/ha
measured-quantity: GALAP herbicidal rating

compound="CN1C(=O)C(CC(=O)OCCF)SC1=Nc1cc(-n2c(=O)cc(C(F)(F)F)n(C)c2=O)c(F)cc1Cl (stereo not drawn) [Compound 93]" reported_value=5.0
compound="C#CCOC(=O)CC1SC(=Nc2cc(-n3c(=O)cc(C(F)(F)F)n(C)c3=O)c(F)cc2Cl)N(CC=C)C1=O (stereo not drawn) [Compound 67]" reported_value=6.0
compound="CC(C)C[C@@H](C(=O)O)N1C(=O)CSC1=Nc1cc(-n2c(=O)cc(C(F)(F)F)n(C)c2=O)c(F)cc1Cl [Compound 71]" reported_value=6.0
compound="CCOC(=O)CN1C(=O)C(CC(=O)Nc2ccccc2)SC1=Nc1cc(-n2c(=O)cc(C(F)(F)F)n(C)c2=O)c(F)cc1Cl (stereo not drawn) [Compound 68]" reported_value=3.0
compound="C[C@H](C(=O)O)N1C(=O)CSC1=Nc1cc(-n2c(=O)cc(C(F)(F)F)n(C)c2=O)c(F)cc1Cl [Compound 70]" reported_value=0.0
compound="CN1C(=O)C(CC(=O)Nc2ccccc2)SC1=Nc1cc(-n2c(=O)cc(C(F)(F)F)n(C)c2=O)c(F)cc1Cl (stereo not drawn) [Compound 91]" reported_value=0.0

###

System: ORYSAT (Rice, Tebonnet)
test-method-notes: Preemergence herbicidal evaluation
Format: in vivo, Oryza sativa, (L.) Tebonnet
condition-parameters: rate 0.2500 kg/ha; rated 4-5 weeks after treatment; rating scale 0-9
measured-quantity: Preemergence herbicidal rating ORYSAT

molecule="CCOC(=O)CN1C(=O)C(COC)SC1=Nc1cc(-n2c(=O)cc(C(F)(F)F)n(C)c2=O)c(F)cc1Cl (stereo not shown) [Compound 156]" target_or_system="ORYSAT (Rice, Tebonnet)" measured_quantity="Preemergence herbicidal rating ORYSAT" reported_value=3.0
molecule="Cn1c(C(F)(F)F)cc(=O)n(-c2cc(N=C3SCC(=O)N3Cc3ccc(F)cc3)c(Cl)cc2F)c1=O [Compound 151]" target_or_system="ORYSAT (Rice, Tebonnet)" measured_quantity="Preemergence herbicidal rating ORYSAT" reported_value=9.0
molecule="Cc1cc(C)cc(CN2C(=O)CSC2=Nc2cc(-n3c(=O)cc(C(F)(F)F)n(C)c3=O)c(F)cc2Cl)c1 [Compound 146]" target_or_system="ORYSAT (Rice, Tebonnet)" measured_quantity="Preemergence herbicidal rating ORYSAT" reported_value=1.0
molecule="Cn1c(C(F)(F)F)cc(=O)n(-c2cc(N=C3SCC(=O)N3Cc3cccc(Cl)c3)c(Cl)cc2F)c1=O [Compound 136]" target_or_system="ORYSAT (Rice, Tebonnet)" measured_quantity="Preemergence herbicidal rating ORYSAT" reported_value=1.0

###

Quick reference for herbicidal effect rating, SAGPY among some molecules
System: SAGPY (Arrowhead (Pygmaea))
test-method-notes: Preemergence weed control under flooded paddy conditions
Type: in vivo, Sagittaria pygmaea
condition-parameters: 0.0313 kg/ha, rated 3-4 weeks after treatment
measured-quantity: herbicidal effect rating, SAGPY

molecule=Cn1c(C(F)(F)F)cc(=O)n(-c2cc(N=C3SCC(=O)N3C3CCCC3)c(Cl)cc2F)c1=O target_or_system="SAGPY (Arrowhead (Pygmaea))" reported_value=2.0
molecule=Cc1cc(C)cc(CN2C(=O)CSC2=Nc2cc(-n3c(=O)cc(C(F)(F)F)n(C)c3=O)c(F)cc2Cl)c1 target_or_system="SAGPY (Arrowhead (Pygmaea))" reported_value=0.0
molecule="CCOC(=O)CN1C(=O)C(OC)SC1=Nc1cc(-n2c(=O)cc(C(F)(F)F)n(C)c2=O)c(F)cc1Cl (stereo not shown)" target_or_system="SAGPY (Arrowhead (Pygmaea))" reported_value=0.0
molecule="COC(=O)C(C)OC(=O)CN1C(=O)CSC1=Nc1cc(-n2c(=O)cc(C(F)(F)F)n(C)c2=O)c(F)cc1Cl (stereo not shown)" target_or_system="SAGPY (Arrowhead (Pygmaea))" reported_value=2.0
molecule="CCOC(=O)CN1C(=O)C(C(=O)OC)SC1=Nc1cc(-n2c(=O)cc(C(F)(F)F)n(C)c2=O)c(F)cc1Cl (stereo not shown)" target_or_system="SAGPY (Arrowhead (Pygmaea))" reported_value=0.0
molecule=Cn1c(C(F)(F)F)cc(=O)n(-c2cc(N=C3SCC(=O)N3Cc3cc(Cl)cc(Cl)c3)c(Cl)cc2F)c1=O target_or_system="SAGPY (Arrowhead (Pygmaea))" reported_value=0.0
molecule=CC(C)N1C(=O)CSC1=Nc1cc(-n2c(=O)cc(C(F)(F)F)n(C)c2=O)c(F)cc1Cl target_or_system="SAGPY (Arrowhead (Pygmaea))" reported_value=4.0

###

Tested on: CHEAL (Lambsquarters, Common)
test-method-notes: Preemergence herbicidal evaluation
Type: in vivo, Chenopodium album
condition-parameters: 0.0313 kg/ha, rated 4-5 weeks after treatment
# Preemergence herbicidal rating CHEAL values compiled below
measured-quantity: Preemergence herbicidal rating CHEAL

compound=CCN1C(=O)CSC1=Nc1cc(-n2c(=O)cc(C(F)(F)F)n(C)c2=O)c(F)cc1Cl reported_value=9.0
compound="CCOC(=O)CN1C(=O)C(C(=O)OC(C)(C)C)SC1=Nc1cc(-n2c(=O)cc(C(F)(F)F)n(C)c2=O)c(F)cc1Cl (centres unmarked)" reported_value=7.0
compound=Cn1c(C(F)(F)F)cc(=O)n(-c2cc(N=C3SCC(=O)N3C3CCCC3)c(Cl)cc2F)c1=O reported_value=0.0
compound="CCOC(=O)CN1C(=O)C(CC(=O)O)SC1=Nc1cc(N2C(=O)CC(C(F)(F)F)CC2=O)c(F)cc1Cl (centres unmarked)" reported_value=9.0
compound=COCCCN1C(=O)CSC1=Nc1cc(-n2c(=O)cc(C(F)(F)F)n(C)c2=O)c(F)cc1Cl reported_value=9.0
